Hey, just so you know, these numbers are from paper PMC11003488.

# System: Prostate cancer cell lines
# assay notes: NCI-60 SRB growth inhibition, subpanel
# Format: cell-based, human
# run conditions: Homo sapiens, read-out: GI50 MG-MID
# GI50 values compiled below

{"columns": ["compound structure string", "GI50 [µM]"],
 "data": [
  ["O=C(/C=C/c1cccnc1)c1cccc(NCc2ccc(CO)cc2)c1", 12.2],
  ["CC(=O)Nc1ccc(/C=C/C(=O)c2cccc(NCc3ccc(NC(C)=O)cc3)c2)cc1", 11.7],
  ["CC(=O)Nc1ccc(/C=C/C(=O)c2cccc(NCc3ccc(C)cc3)c2)cc1", 10.1],
  ["CC(=O)Nc1ccc(CNc2cccc(C(=O)/C=C/c3cccnc3)c2)cc1", 4.1],
  ["O=C(/C=C/c1cccnc1)c1cccc(NCc2csc3ccccc23)c1", 5.56],
  ["COc1ccc(CNc2cccc(C(=O)/C=C/c3cccnc3)c2)cc1OC", 10.2],
  ["CC(=O)Nc1ccc(/C=C/C(=O)c2cccc(NCc3csc4ccccc34)c2)cc1", 5.01],
  ["Cc1ccc(CNc2cccc(C(=O)/C=C/c3cccnc3)c2)cc1", 13.8],
  ["COc1ccc(CNc2cccc(C(=O)/C=C/c3ccc(NC(C)=O)cc3)c2)cc1OC", 3.53],
  ["CC(=O)Nc1ccc(/C=C/C(=O)c2cccc(NCc3ccc(CO)cc3)c2)cc1", 8.67]
]}

###

# Test system: NCI 60-cell line panel (full panel)
# assay notes: NCI-60 SRB growth inhibition, full panel mean / MG-MID
# Type: cell-based, human
# run conditions: Homo sapiens, 60 cell, read-out: Full panel GI50 mean
observable: GI50 (µM)

{"columns": ["molecule", "result value"],
 "data": [
  ["CC(=O)Nc1ccc(CNc2cccc(C(=O)/C=C/c3cccnc3)c2)cc1 [Compound 5b]", 4.65],
  ["CC(=O)Nc1ccc(/C=C/C(=O)c2cccc(NCc3csc4ccccc34)c2)cc1 [Compound 5i]", 7.06],
  ["Cc1ccc(CNc2cccc(C(=O)/C=C/c3cccnc3)c2)cc1 [Compound 5a]", 10.8],
  ["CC(=O)Nc1ccc(/C=C/C(=O)c2cccc(NCc3ccc(NC(C)=O)cc3)c2)cc1 [Compound 5g]", 9.52],
  ["CC(=O)Nc1ccc(/C=C/C(=O)c2cccc(NCc3ccc(CO)cc3)c2)cc1 [Compound 5j]", 10.3]
]}

###

# GI50 values compiled below
# System: Breast cancer cell lines
# assay notes: NCI-60 SRB growth inhibition, subpanel
# Format: cell-based, human
# run conditions: Homo sapiens, read-out: GI50 MG-MID

{"columns": ["compound", "result units", "GI50"],
 "data": [
  ["O=C(/C=C/c1cccnc1)c1cccc(NCc2ccc(CO)cc2)c1 [Compound 5e]", "µM", 7.2],
  ["CC(=O)Nc1ccc(/C=C/C(=O)c2cccc(NCc3ccc(C)cc3)c2)cc1 [Compound 5f]", "µM", 7.03],
  ["CC(=O)Nc1ccc(/C=C/C(=O)c2cccc(NCc3ccc(NC(C)=O)cc3)c2)cc1 [Compound 5g]", "µM", 7.7],
  ["O=C(/C=C/c1cccnc1)c1cccc(NCc2csc3ccccc23)c1 [Compound 5d]", "µM", 2.69],
  ["COc1ccc(CNc2cccc(C(=O)/C=C/c3ccc(NC(C)=O)cc3)c2)cc1OC [Compound 5h]", "µM", 2.91],
  ["CC(=O)Nc1ccc(CNc2cccc(C(=O)/C=C/c3cccnc3)c2)cc1 [Compound 5b]", "µM", 2.45],
  ["CC(=O)Nc1ccc(/C=C/C(=O)c2cccc(NCc3ccc(CO)cc3)c2)cc1 [Compound 5j]", "µM", 10.1],
  ["COc1ccc(CNc2cccc(C(=O)/C=C/c3cccnc3)c2)cc1OC [Compound 5c]", "µM", 5.96],
  ["Cc1ccc(CNc2cccc(C(=O)/C=C/c3cccnc3)c2)cc1 [Compound 5a]", "µM", 9.21],
  ["CC(=O)Nc1ccc(/C=C/C(=O)c2cccc(NCc3csc4ccccc34)c2)cc1 [Compound 5i]", "µM", 3.79]
]}
